# Test system: CCRF-CEM leukemia
# assay summary: NCI tumour cell line growth inhibition, 48 h
measure: TGI

> print(dat)
                                   compound    target.of.assay  measure      value
1  NS(=O)(=O)c1cc(S(N)(=O)=O)c(NC(=O)N(c2ccccc2)c2ccccc2)c(Cl)c1Cl  CCRF-CEM leukemia      TGI    25.7 µM
2  COc1cc(-n2cc(-c3cc(O)c(C/C=C(\C)CCC=C(C)C)c(O)c3)nn2)cc2c1O[C@]1(C)CC[C@@H](O)C(C)(C)[C@H]1C2  CCRF-CEM leukemia      TGI  > 43.3 µM
3  CCN(CC)CCCCC1CCN(CC(=O)N2c3ccccc3NC(=O)CC2C)CC1 (centres undefined)  CCRF-CEM leukemia      TGI   > 100 µM
4  O=[N+]([O-])C1C2C=CC(C2)[C@H]1c1ccc(Cl)cc1Cl (some centres undefined)  CCRF-CEM leukemia      TGI   > 100 µM
